From: ChEMBL document CHEMBL1201862

system: KM12; assay: NCI tumour cell line growth inhibition, 48 h
Activity calls are given as the source filed them. No stated cut-off is given here; in the data, active = GI50 up to about 1.1 µM and inactive = higher.
Reply using exactly one outcome from active, inactive

Solved entries (count: 6):
>>> assignedclass("COc1ccc(N2C(=O)C3c4[nH]c5ccc(OC)cc5c4C4CCC(C(C)(C)C)CC4C3C2=O)cc1 (stereo not given)")
"inactive"
>>> assignedclass("COC(=O)c1nn(-c2ccccc2)c(=O)cc1N=[N+]=[N-]")
"inactive"
>>> assignedclass("Cc1cc(C)c2c(=N)c3ccccc3n(CCCCCCCCn3c4ccccc4c(=N)c4c(C)cc(C)nc43)c2n1")
"active"
>>> assignedclass("COc1cccc(Cc2cc(=O)c3ccc(C)nc3[nH]2)c1")
"inactive"
>>> assignedclass("CCCCN1C(=O)c2c(Br)sc(Br)c2C1=O")
"inactive"
>>> assignedclass("CC1=NN(c2cccc(Cl)c2)C2(C1=Cc1ccc(O)cc1)C(Cl)C(=O)N2c1nc2ccccc2s1 (stereo not given)")
"inactive"

Record request — test call for OCCCSCCO inactive

Hi, do you know how C/C(=C\CO)CC/C=C(\C)CNc1c(F)c(F)c(F)c(F)c1F came out in this test? inactive

Record request — test call for COC(=O)C1=C(O)C(C(=O)OC)[C@]2(O)[C@H](C(=O)OC)[C@H]1C[C@@H](c1c(Cl)cccc1Cl)[C@H]2C(=O)OC (stereo not given in full) inactive

GET /call?item= CCCC(=O)Nc1cn(COC)c(C(=O)N2C[C@@H]3C[C@]34C2=CC(=O)c2[nH]cc(C)c24)n1 returns the recorded outcome of this test. inactive
